Assignment: determine reported TGI for the given compounds.
- Tested on: EKVX NSCLC
- ASSAY TEXT: NCI tumour cell line growth inhibition, 48 h

I would be grateful if you could share the reported TGI for CCCNC(=O)CCC(C)C1CCC2C3C(C[C@H](OC(C)=O)[C@]12C)[C@@]1(C)CCC2(C[C@H]1C[C@H]3OC(C)=O)OOC1(CC[C@]3(C)C4C[C@H](OC(C)=O)[C@]5(C)C(C(C)CCC(=O)NCCC)CCC5C4[C@H](OC(C)=O)C[C@@H]3C1)OO2 (some centres undefined) .
> 100 µM

Need TGI of `COc1ccc(C(=O)/C=C/c2cccc([N+](=O)[O-])c2)c(OC)c1` , thanks.
> 50 µM

If you can, please state the reported TGI value of `COc1cc2ccccc2oc1=O` .
> 100 µM

For the compound `O=C1NCc2ccccc2S(=O)(=O)n2cccc21` , what TGI is on record?
> 100 µM
